# STUDY_TARGET: Thyrotropin receptor (Homo sapiens) (UniProt P16473)
# Sequence (P16473 whole entry, looked up): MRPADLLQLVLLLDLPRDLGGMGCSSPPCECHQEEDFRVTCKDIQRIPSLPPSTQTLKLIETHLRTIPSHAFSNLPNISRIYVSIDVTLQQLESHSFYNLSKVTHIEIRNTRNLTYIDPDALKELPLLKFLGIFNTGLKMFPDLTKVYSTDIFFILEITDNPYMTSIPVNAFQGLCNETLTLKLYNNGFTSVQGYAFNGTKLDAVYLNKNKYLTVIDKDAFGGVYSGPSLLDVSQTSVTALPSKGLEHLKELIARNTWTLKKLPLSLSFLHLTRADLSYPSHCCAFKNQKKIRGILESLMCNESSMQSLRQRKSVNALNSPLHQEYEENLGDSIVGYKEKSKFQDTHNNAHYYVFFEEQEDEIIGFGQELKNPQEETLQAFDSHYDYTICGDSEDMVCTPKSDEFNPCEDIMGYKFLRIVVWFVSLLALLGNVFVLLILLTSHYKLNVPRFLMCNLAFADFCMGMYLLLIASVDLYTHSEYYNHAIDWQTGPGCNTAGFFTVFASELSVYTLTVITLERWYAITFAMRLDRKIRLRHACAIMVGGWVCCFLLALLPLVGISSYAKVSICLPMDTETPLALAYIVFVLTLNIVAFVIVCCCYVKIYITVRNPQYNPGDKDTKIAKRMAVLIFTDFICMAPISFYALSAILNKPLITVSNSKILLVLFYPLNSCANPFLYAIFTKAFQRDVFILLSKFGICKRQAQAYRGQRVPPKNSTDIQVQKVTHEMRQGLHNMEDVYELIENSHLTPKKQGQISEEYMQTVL
# PROTOCOL: qHTS Assay for Antagonists of the Thyroid Stimulating Hormone Receptor: SAR for Probe
# CONDITION_LABEL: HEK293-TSHR, TSH-stimulated cAMP HTRF, 2 h; series mostly up to 57.5 µM
Records with an inconclusive call do not appear. Calls of active or inactive are those of the source. Calls follow the shape of the dose curve; as a rule, active = well fitted curve in the direction sought with a large enough effect; inconclusive = small, poorly fitted or top-dose-only effect, or effect the other way, or another doubt; inactive = no such curve, though single readings can be large or run the other way.
PARAMETER: Potency

COMPOUND | Potency
COc1ccc(CN(Cc2ccccc2)C(=O)CN2CCN(C)CC2)cc1COc1ccc(NC(C)=O)cc1 | inactive
COc1ccc(C2Nc3ccccc3C(=O)N2Cc2ccco2)cc1COc1c(C)cc(NC(C)=O)cc1C (stereo not drawn) | 36.6 µM (active)
COc1ccc(CN(Cc2ccccc2)S(=O)(=O)c2ccccc2)cc1COc1ccc(NC(C)=O)cc1 | inactive
COc1ccc(C2NC(=O)c3ccccc3N2)cc1COc1c(C)cc(NC(C)=O)cc1C (stereo not drawn) | inactive
COc1cccc(CN2C(=O)c3ccccc3NC2c2ccc(OC)c(COc3c(C)cc(NC(C)=O)cc3C)c2)c1 (stereo not drawn) | inactive
COc1ccc(C2Nc3cccc(O)c3C(=O)N2Cc2ccco2)cc1COc1c(C)cc(NC(C)=O)cc1C (stereo not drawn) | inactive
Nc1ccccc1C(=O)NCc1ccco1 | inactive
COc1cc(C2Nc3ccccc3C(=O)N2Cc2ccccc2)ccc1OCc1ccc(NC(C)=O)cc1 (stereo not drawn) | inactive
COc1ccc(C2Nc3ccccc3C(=O)N2CCCN(C)C)cc1COc1ccc(NC(C)=O)cc1 (stereo not drawn) | inactive
COc1ccc(C2Nc3ccccc3C(=O)N2Cc2ccco2)cc1COc1ccccc1 (stereo not drawn) | inactive

Please report the measured Potency for COc1ccc(C2Nc3ccccc3C(=O)N2Cc2ccccc2)cc1COc1c(C)cc(NC(C)=O)cc1C (stereo not drawn)
inactive

Let me know recorded Potency for COc1ccc(C2Nc3ccccc3C(=O)N2Cc2ccccc2OC)cc1COc1c(C)cc(NC(C)=O)cc1C (stereo not drawn) , thanks.
inactive

Please supply the value of reported Potency for the item COc1ccc(C2Nc3ccccc3C(=O)N2Cc2ccco2)cc1COc1c(C(C)C)cccc1C(C)C (stereo not drawn)
inactive
